- ASSAYED TARGET: T1, human Claudin18.1 (CLDN18.1) (human, UniProt P56856 1-261)
- T1 construct: whole, on cells; also called human Claudine18.1
- T1 sequence (P56856 whole entry): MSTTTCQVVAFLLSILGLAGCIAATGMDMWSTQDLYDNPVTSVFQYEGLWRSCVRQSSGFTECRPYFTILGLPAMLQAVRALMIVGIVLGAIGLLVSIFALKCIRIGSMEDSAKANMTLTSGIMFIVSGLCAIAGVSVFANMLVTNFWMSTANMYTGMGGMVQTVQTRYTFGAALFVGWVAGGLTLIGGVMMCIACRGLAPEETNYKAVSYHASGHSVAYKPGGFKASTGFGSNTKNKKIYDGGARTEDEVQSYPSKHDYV
- ASSAY INFO: FACS on CHOK1-18.1 cells;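 also: antibody binding to cells detected with a fluorescently labelled secondary antibody, read out as median fluorescence intensity (MFI) by flow cytometry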
OBSERVATION TYPE: binding result

>>> reported("Ab15 (antibody, V domains shown, mouse monoclonal (hybridoma); also called mAb Ab15) VH: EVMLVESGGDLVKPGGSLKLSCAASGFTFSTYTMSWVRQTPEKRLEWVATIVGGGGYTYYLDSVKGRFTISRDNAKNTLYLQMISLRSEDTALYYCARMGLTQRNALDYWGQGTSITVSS VL: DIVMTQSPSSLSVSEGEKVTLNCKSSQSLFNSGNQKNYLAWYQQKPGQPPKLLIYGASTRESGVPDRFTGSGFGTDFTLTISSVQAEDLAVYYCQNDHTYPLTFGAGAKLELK")
"no binding"
>>> reported("Ab16 (antibody, V domains shown, mouse monoclonal (hybridoma)) VH: EVMLVESGGGLVKPGGSLKLSCAASGFTFNSYTMSWVRQTPEKRLEWVATITVIGGNTYYLDSVKGRFTISIDNGKNTLYLQMSSLRSEDTALYYCARMGQTQRNAMDYWGQGTSVTVSS VL: DIVMTQSPSSLSVSAGQKVTMRCKSSQSLLNSGNQKNYLAWYQQKLGQPPKLLIYGASTRESGVPDRFSGSGSGTDFTLTITSVQAEDLAVYYCQNDYSFPLTFGAGTKLELK")
"no binding"
>>> reported("Ab35 (antibody, V domains shown, mouse monoclonal (hybridoma)) VH: DVFLQESGPGLVKPSQSLSLTCTVTGYSITSDYAWNWIRQFPGNKLEWVTYIGYSGTTSYNPSLKSRISITRDTSKNQFFLQLNSVSTEDTATYYCVRRGSYYGSYWFFDVWGAGTTVTVSS VL: QVVLSQSPAILSASPGEKVTMTCRASSSVSYMHWYQQKPGSSPKPWIYATSNLASGVPPHFSGSGSGTSYSLTISRVEAEDAATYYCQQWTSNPPTFGGGTKLEIK")
"no binding"
